pIC50: −log10 of the molar value.
Below are pIC50 values measured for PI3K-δ (Homo sapiens (Human), UniProt O00329).

Q: API: value(readout= pIC50, system= PI3K-δ (Homo sapiens (Human), UniProt O00329), query= `Cn1nc(C2CCN(C(=O)C(C)(C)O)CC2)nc1-c1cnc(N)c(-c2nnc(C(C)(C)C)o2)n1` )
Ans: 7.85

Q: API: value(readout= pIC50, system= PI3K-δ (Homo sapiens (Human), UniProt O00329), query= `C[C@@H](O)CC(=O)N1CCC(c2nc(-c3cnc(N)c(-c4nnc(C(C)(C)C)o4)n3)n(C)n2)CC1` )
Ans: > 7.92

Q: API: value(readout= pIC50, system= PI3K-δ (Homo sapiens (Human), UniProt O00329), query= `CCn1nc(C2CCN(C(=O)CC(=O)O)CC2)nc1-c1cnc(N)c(-c2nnc(C(C)(C)C)o2)n1` )
Ans: > 8.00
